Reference for the values: ChEMBL document CHEMBL4689842

Would you kindly list Population Hoechst High Intensity Objects (%) for each of these molecules?
Tested on: HEK-293T
Assay: Multiplex assay against HEK293T
Type: toxicity, cell-based
Conditions: human, 12 h, 10 µM, compound concentration 10 uM, replicate 2
Give just the numeric value; % need not be written.

Reported Population Hoechst High Intensity Objects (%) for CN(C)C(=O)/C(C#N)=C/c1ccc(-c2nc3cnc4[nH]ccc4c3n2C2CCCCC2)o1 was 25

Reported Population Hoechst High Intensity Objects (%) for CN1CCN(CCOc2cc(OC3CCOCC3)c3c(Nc4c(Cl)ccc5c4OCO5)ncnc3c2)CC1 [SARACATINIB] was 7

Reported Population Hoechst High Intensity Objects (%) for c1cn2cc(-c3ccc4cn[nH]c4c3)nc(Nc3ccc(N4CCOCC4)cc3)c2n1 [ENTOSPLETINIB] was 22

Reported Population Hoechst High Intensity Objects (%) for Cn1cc(-c2[nH]c3cc(NC(=O)[C@H](N)C4CCCCC4)cc4c3c2C=NNC4=O)cn1 was 6

Reported Population Hoechst High Intensity Objects (%) for CC[C@H](C)C(=O)O[C@H]1C[C@@H](C)C=C2C=C[C@H](C)[C@H](CC[C@@H]3C[C@@H](O)CC(=O)O3)[C@H]21 [LOVASTATIN] was 3

Reported Population Hoechst High Intensity Objects (%) for CN(C)C(=O)N[C@H]1CC[C@H](CCN2CCN(c3cccc(Cl)c3Cl)CC2)CC1.Cl [CARIPRAZINE HYDROCHLORIDE] was 6

Reported Population Hoechst High Intensity Objects (%) for C=CC(=O)Nc1cc2c(Nc3ccc(F)c(Cl)c3)ncnc2cc1OCCCN1CCOCC1.Cl.Cl [CANERTINIB DIHYDROCHLORIDE] was 3

Reported Population Hoechst High Intensity Objects (%) for CN(C)CC#Cc1ccc(OCCCc2sc(N3CCc4cccc(C(=O)Nc5nc6ccccc6s5)c4C3)nc2C(=O)O)c(F)c1 [A-1155463] was 7

Reported Population Hoechst High Intensity Objects (%) for Cc1csc2c(N[C@@H](C)CN3CCN(S(=O)(=O)c4ccc(Cl)c(Cl)c4)CC3)ncnc12 was 8

Reported Population Hoechst High Intensity Objects (%) for Cc1nc(-c2cn3c(n2)-c2ccc(-c4cnn(C(C)(C)C(N)=O)c4)cc2OCC3)n(C(C)C)n1 [TASELISIB] was 3

Reported Population Hoechst High Intensity Objects (%) for CN1CCC[C@@H]1CCO[C@](C)(c1ccccc1)c1ccc(Cl)cc1.O=C(O)/C=C/C(=O)O [CLEMASTINE FUMARATE] was 6

Reported Population Hoechst High Intensity Objects (%) for CN1CCCC(n2nc(Cc3ccc(Cl)cc3)c3ccccc3c2=O)CC1.Cl (stereo unspecified) [AZELASTINE HYDROCHLORIDE] was 4

Reported Population Hoechst High Intensity Objects (%) for OC1(c2ccc(Cl)cc2)CCN(Cc2c[nH]c3ccccc23)CC1 was 9

Reported Population Hoechst High Intensity Objects (%) for C=CC(=O)Nc1ccc2ncnc(Nc3ccc(OCc4cccc(F)c4)c(Cl)c3)c2c1.Cc1ccc(S(=O)(=O)O)cc1 was 8

Reported Population Hoechst High Intensity Objects (%) for COc1ncc(-c2ccc3nccc(-c4ccnnc4)c3c2)cc1NS(=O)(=O)c1ccc(F)cc1F [OMIPALISIB] was 6

Reported Population Hoechst High Intensity Objects (%) for Cc1[nH]c(/C=C2\C(=O)Nc3ccc(S(=O)(=O)N(C)c4cccc(Cl)c4)cc32)c(C)c1C(=O)N1CCN(C)CC1 was 5

====

Tested on: HEK-293T
Experiment: Multiplex assay against HEK293T
Type: toxicity, cell-based
Conditions: human, 24 h, 10 µM, compound concentration 10 uM, replicate 2
attribute measured: Population Mitochondria Different-Phenotype (%)
Don't forget the unit after the number, please.

Reported Population Mitochondria Different-Phenotype (%) for c1cn2cc(-c3ccc4cn[nH]c4c3)nc(Nc3ccc(N4CCOCC4)cc3)c2n1 was 88%

Reported Population Mitochondria Different-Phenotype (%) for CNCc1ccc(-c2cc(-c3nc(-c4ccc(S(=O)(=O)C(C)C)cc4)cnc3N)on2)cc1 was 14%

Reported Population Mitochondria Different-Phenotype (%) for Cc1nc(Nc2n[nH]c3c2CN(C(=O)N[C@H](CN(C)C)c2ccccc2)C3(C)C)c2sccc2n1 was 47%

Reported Population Mitochondria Different-Phenotype (%) for COc1cc(-n2cnc3cc(-c4ccc(Cl)cc4)sc3c2=O)ccc1OCCN1CCCC1 was 68%

Reported Population Mitochondria Different-Phenotype (%) for C=CC(=O)Nc1ccc2ncnc(Nc3ccc(OCc4cccc(F)c4)c(Cl)c3)c2c1.Cc1ccc(S(=O)(=O)O)cc1 was 50%

Reported Population Mitochondria Different-Phenotype (%) for Cc1cc(C)cc(-c2cnc3cc(Cl)c(-c4cccc(O)c4)cc3c2OCCCN)c1 was 75%

Reported Population Mitochondria Different-Phenotype (%) for CC(C)NCC(O)COc1ccc(CCOCC2CC2)cc1.Cl (centres undefined) [BETAXOLOL HYDROCHLORIDE] was 80%

Reported Population Mitochondria Different-Phenotype (%) for OC1(c2ccc(Cl)cc2)CCN(Cc2c[nH]c3ccccc23)CC1 was 73%

Reported Population Mitochondria Different-Phenotype (%) for C=CC(=O)Nc1cccc(C(=O)Nc2ccc(Nc3cc(-c4[nH]c(SC)nc4C)ccn3)cc2)c1 was 34%

Reported Population Mitochondria Different-Phenotype (%) for CN1CCCC(n2nc(Cc3ccc(Cl)cc3)c3ccccc3c2=O)CC1.Cl (centres undefined) [AZELASTINE HYDROCHLORIDE] was 100%

Reported Population Mitochondria Different-Phenotype (%) for Cc1[nH]c(/C=C2\C(=O)Nc3ccc(S(=O)(=O)N(C)c4cccc(Cl)c4)cc32)c(C)c1C(=O)N1CCN(C)CC1 was 81%

Reported Population Mitochondria Different-Phenotype (%) for Cn1cc(-c2[nH]c3cc(NC(=O)[C@H](N)C4CCCCC4)cc4c3c2C=NNC4=O)cn1 was 70%

Reported Population Mitochondria Different-Phenotype (%) for COc1cccc([C@@H](C)NCCCc2ccccc2Cl)c1.Cl [TECALCET HYDROCHLORIDE] was 100%

Reported Population Mitochondria Different-Phenotype (%) for CC(C)(O)CNc1ncc(-c2ccnc(Nc3ccnc(Cl)c3)n2)c(CC2CC2)n1 was 80%

Reported Population Mitochondria Different-Phenotype (%) for CN1CCN(c2ccc(OC(F)(F)F)c(Nc3ncc4c(n3)-c3c(c(C(N)=O)nn3CCO)CC4)c2)CC1 was 83%

Reported Population Mitochondria Different-Phenotype (%) for CN(C)C(=O)N[C@H]1CC[C@H](CCN2CCN(c3cccc(Cl)c3Cl)CC2)CC1.Cl [CARIPRAZINE HYDROCHLORIDE] was 97%

Reported Population Mitochondria Different-Phenotype (%) for CCN(CC)CCCCNc1ncc2cc(-c3cc(OC)cc(OC)c3)c(NC(=O)NC(C)(C)C)nc2n1 was 6%

Reported Population Mitochondria Different-Phenotype (%) for Cc1nc(-c2cn3c(n2)-c2ccc(-c4cnn(C(C)(C)C(N)=O)c4)cc2OCC3)n(C(C)C)n1 was 2%

Reported Population Mitochondria Different-Phenotype (%) for CN(C)CC#Cc1ccc(OCCCc2sc(N3CCc4cccc(C(=O)Nc5nc6ccccc6s5)c4C3)nc2C(=O)O)c(F)c1 was 13%

Reported Population Mitochondria Different-Phenotype (%) for O=C1NCN(c2ccccc2)C12CCN(CCCOc1ccc(F)cc1)CC2 [SPIRAMIDE] was 59%

Reported Population Mitochondria Different-Phenotype (%) for CN1CCN(CCOc2cc(OC3CCOCC3)c3c(Nc4c(Cl)ccc5c4OCO5)ncnc3c2)CC1 was 95%

Reported Population Mitochondria Different-Phenotype (%) for C[C@@H](NCCCc1cccc(C(F)(F)F)c1)c1cccc2ccccc12.Cl [CINACALCET HYDROCHLORIDE] was 100%

Reported Population Mitochondria Different-Phenotype (%) for Cc1c(-c2ccc(O)cc2)n(Cc2ccc(OCCN3CCCCCC3)cc2)c2ccc(O)cc12 was 88%

Reported Population Mitochondria Different-Phenotype (%) for Cl.N#Cc1ccc2[nH]cc(CCCCN3CCN(c4ccc5oc(C(N)=O)cc5c4)CC3)c2c1 [VILAZODONE HYDROCHLORIDE] was 94%

Reported Population Mitochondria Different-Phenotype (%) for C=CC(=O)Nc1cc2c(Nc3ccc(F)c(Cl)c3)ncnc2cc1OCCCN1CCOCC1.Cl.Cl [CANERTINIB DIHYDROCHLORIDE] was 3%

Reported Population Mitochondria Different-Phenotype (%) for CN1C(=O)c2sccc2N(C)c2nc(Nc3ccc(S(N)(=O)=O)cc3)ncc21 was 1%

Reported Population Mitochondria Different-Phenotype (%) for COc1cc2nccc(Oc3ccc(NC(=O)Nc4cc(C)on4)c(Cl)c3)c2cc1OC.O was 98%

Reported Population Mitochondria Different-Phenotype (%) for CN1CCC[C@@H]1CCO[C@](C)(c1ccccc1)c1ccc(Cl)cc1.O=C(O)/C=C/C(=O)O [CLEMASTINE FUMARATE] was 93%

Reported Population Mitochondria Different-Phenotype (%) for CN(C)C(=O)/C(C#N)=C/c1ccc(-c2nc3cnc4[nH]ccc4c3n2C2CCCCC2)o1 was 49%

Reported Population Mitochondria Different-Phenotype (%) for Cc1sc2c(c1C)C(c1ccc(Cl)cc1)=N[C@@H](CC(=O)OC(C)(C)C)c1nnc(C)n1-2 was 5%

Reported Population Mitochondria Different-Phenotype (%) for COc1ncc(-c2ccc3nccc(-c4ccnnc4)c3c2)cc1NS(=O)(=O)c1ccc(F)cc1F was 57%

Reported Population Mitochondria Different-Phenotype (%) for CC[C@H](C)C(=O)O[C@H]1C[C@@H](C)C=C2C=C[C@H](C)[C@H](CC[C@@H]3C[C@@H](O)CC(=O)O3)[C@H]21 was 17%

Reported Population Mitochondria Different-Phenotype (%) for CNc1nc(NCc2ccc(NS(C)(=O)=O)cc2Cl)cc(-c2ccccn2)n1 was 88%

Reported Population Mitochondria Different-Phenotype (%) for Cc1csc2c(N[C@@H](C)CN3CCN(S(=O)(=O)c4ccc(Cl)c(Cl)c4)CC3)ncnc12 was 85%
